System: U251 CNS
Test name: NCI-60 one-dose screen, 48 h (100 = growth as untreated, 0 = no growth, -100 = all killed)
Measurement context: 10 µM unless noted
About 83,000 compounds went through this panel and 20% of them were active in at least one assay; those are over-represented in the sample as a whole.
Reported growth values for the following compounds.
Please respond with the number in % and leave the unit unwritten.

# query: growth of entry "CC(C)[O-].CC(C)[O-].CN(CCN(C)Cc1cc(F)cc(F)c1[O-])Cc1cc(F)cc(F)c1[O-].[Ti+4]"
4.7

Now give it for CC(O)c1nc2c(c(=O)n(C)c(=O)n2C)n1C (stereo not given) too.
102

Continue with COc1ccc(C2=NN(C(C)=O)C(c3cc(OC)c(OC)c(OC)c3)C2)cc1 (stereo not given)
105

Then what about the compound O=C(O)c1ccccc1C(=O)OC1CCCC2CCCC21 (stereo not given) ?
114

* * *

Tested on: NCI/ADR-RES ovarian
Test name: NCI-60 one-dose screen, 48 h
Measurement context: 10 µM unless noted
The panel holds about 83,000 compounds, 20% with a hit somewhere; the sample as a whole holds those more often. The source made the active and inactive calls. Rule for the calls: active = growth percent below 10; inactive = the rest.
Output constraint: value belongs to y = active, n = inactive

# example entries with known answers
| Molecule | Label class |
| --- | --- |
| COc1ccccc1[C@H]1c2[nH]c3ccccc3c2C[C@H]2C(=O)N(CCCCCCC(=O)NO)CC(=O)N12 | n |
| C=C(C[C@@](O)(C(=O)Oc1ccccc1)C(=O)C1CCCCC1)c1ccccc1 | n |
| Cc1nn(-c2ccccc2)c2ncc3c(c12)C(=O)N(Cc1ccccc1)C3=O | n |
| CN(C)c1cccc2c(S(=O)(=O)N[C@H]3CC[C@H]4[C@@H]5CCc6cc(O)ccc6[C@H]5CC[C@]34C)cccc12 | n |
| COc1ccc(-c2cncn2-c2ccc(-c3nc4cc(OC)c(OC)c(OC)c4s3)cc2)cc1N | n |
| O=C1c2ccccc2C(=O)c2c1cccc2-n1nnc2ccccc21 | n |
| CCOc1cc(-c2ccc[nH]2)[nH]c1/C=C1\N=C(C)C(C(=O)OC)=C1C | y |
| COc1cc(/C=C2\COc3ccc(O)c(O)c3C2=O)cc(OC)c1 | y |
| CCC(CC)NCCCCCNc1cc(OC)cc2cccnc12 | n |
| CC1=NN(c2ccccc2Cl)C(=O)/C1=C\c1cn(S(=O)(=O)c2ccc(C)cc2)c2ccccc12 | n |

For "COc1ccc(C(=O)Nc2nc(-c3ccc(Cl)cc3)cs2)cc1" , which call appears in the assay record?
n

Same again, this time with CC(=O)Oc1ccc(C23c4ccccc4C2(OC(C)=O)c2cc(OC(C)=O)ccc23)cc1 (stereo not given)
n

* * *

System: MALME-3M melanoma
Test name: NCI-60 one-dose screen, 48 h (100 = growth as untreated, 0 = no growth, -100 = all killed)
Measurement context: 10 µM unless noted
This is part of a sample that, as a whole, favours compounds with a hit. Of some 83,000 tested, about 20% had one in any assay.
Measurement kind: growth (%)
// note: answer is a bare numeric in %

Recorded results for 3 molecules are shown here.
| Molecule | Value units | growth |
| --- | --- | --- |
| COc1ccc(Nc2nccc(N3CCN(c4c5ccc(Cl)cc5nc5ccc(OC)cc45)CC3)n2)cc1 | % | 46 |
| O=C(CSCC(=O)N/N=C/c1ccccc1O)N/N=C\c1ccccc1O | % | 2.43 |
| CCCCC(C#N)C(N)=O (stereo not drawn) | % | 107 |

I have this molecule here, Nc1nc2ncc(CCNc3ccc(C(=O)NC(CCC(=O)O)C(=O)O)cc3)nc2c(=O)[nH]1 (stereo not drawn) , and I need its recorded growth.
118

Now try "Cc1nc2cc(NC(=O)CN3CCN(CCN4C(=O)c5cccc6cccc(c56)C4=O)CC3)ccc2s1" .
70.6

* * *

Tested on: NCI-H522 lung
Test name: NCI-60 one-dose screen, 48 h
Measurement context: 10 µM unless noted
This is part of a sample that, as a whole, favours compounds with a hit. Of some 83,000 tested, about 20% had one in any assay. Active and inactive are the calls of the source. The calls were made as follows: active = growth percent below 10; inactive = the rest.
Can you answer with just one of these options? t = active, f = inactive

Examples with answers:
| Compound | Label class |
| --- | --- |
| O=C(/C(=N/O)S(=O)(=O)c1ccccc1)c1cccs1 | f |
| Nc1ccc(S(=O)(=O)Nc2ncccn2)cc1 | f |
| CCC1=C(c2ccc(OC)cc2)C(C)(C)Oc2cc(O)c(CN3CCCC3)cc21 | f |
| O=C1/C(=N/O)CCc2ccccc21 | f |
| Nc1ccc2c(c1)/C(=N/O)c1cc([N+](=O)[O-])ccc1-2 | f |
| COc1ccc(C2CC(c3ccc(OC)c(OC)c3)=NN2C(=O)c2cc(OC)c(OC)c(OC)c2)cc1 (configuration not stated) | t |

Turning now to a further compound:
Identify the outcome logged in this assay for the compound shown: "CC1=CSC2=NCCN12"
f

* * *

System: OVCAR-4 ovarian
Test name: NCI-60 one-dose screen, 48 h (100 = growth as untreated, 0 = no growth, -100 = all killed)
Measurement context: 10 µM unless noted
This is part of a sample that, as a whole, favours compounds with a hit. Of some 83,000 tested, about 20% had one in any assay. The source made the active and inactive calls. Rule for the calls: active = growth percent below 10; inactive = the rest.
Measurement kind: growth

Consider the following illustrative entries.
| Molecule | growth |
| --- | --- |
| COc1ccc(-n2nc3c(c2-c2ccc(OC)c(OC)c2)-c2oncc2CC3)cc1 | 86.1% (inactive) |
| Nc1ncc(-c2cnn(C3CCNCC3)c2)cc1-c1nc2cc(Cl)ccc2o1 | -83.1% (active) |
| CCOC(=O)/C=C(/C)Sc1cc(O)c2ccccc2c1O | 51.1% (inactive) |
| Cc1ccc(NC(=O)CSc2nnc3n(Cc4ccccc4)c(=O)c4c(C)c(C(N)=O)sc4n23)cc1 | -62.3% (active) |
| CC(c1ccccn1)C(C)(O)C(C)c1ccccn1 (stereo not drawn) | 112% (inactive) |
| O=c1cc(-c2cccnc2)oc2c1ccc1ccccc12 | 89.3% (inactive) |
| NNC(=O)NO | 101% (inactive) |
| COc1cccc(CCC2C(=O)CCCC2=O)c1 | 124% (inactive) |

# growth lookup, item "C/C(=C\CCc1ccsc1)CC/C=C(\C)CCCN1CCC(CO)CC1"
40.8% (inactive)

Can you check "COc1ccc(-c2nn(-c3ccccc3)cc2/C=C2\SC(=S)N(CCc3ccc(O)cc3)C2=O)cc1" next?
78.7% (inactive)

Query "O=C(Nc1ccc(Nc2ccncc2)cc1)c1ccc(Nc2ccnc3ccc([N+](=O)[O-])cc23)cc1[N+](=O)[O-]" next
91.1% (inactive)

What about this molecule? "Cc1nn(-c2ccccc2)c2nc(Cl)c(/C=C/C(=O)c3ccccc3)c(-c3ccccc3)c12"
107% (inactive)

Same read-out for "COC(=O)C[C@@H]1CC=CC(=O)/C1=C(O)/C=C/c1ccccc1" ?
-10.7% (active)

Would you mind doing "CCCCCCCCSc1ncnc2c1ncn2CO" as well?
60.3% (inactive)

Repeat with CCCCCCCC/C=C/CCCCCCCC1=NC(C)(C)CN1CC(C)O (stereo not drawn)
61.7% (inactive)

Repeat for the following molecule: "CCOC(=O)c1c(C)nc(C)c(C(=O)OCC)c1-c1cccnc1"
97.8% (inactive)

What about this molecule? "COc1ccc(/C(=C2\O[C@@H]([C@H](O)CO)[C@H]3OC(C)(C)O[C@@H]23)c2cc(OC)c(OC)c(OC)c2)cc1O"
104% (inactive)

Would you mind doing "CCSc1nnc2n(Cc3ccccc3)c(=O)c3c(C)c(C(N)=O)sc3n12" as well?
99.5% (inactive)

Query "CCOC(=O)c1c2c(c(C)n1Cc1ccccc1)-c1nc(N)ncc1CC2" next
105% (inactive)

Another molecule: "CCN(CC)c1ccc(CN(CC(=O)c2ccc(Cl)c(Cl)c2)Cc2ccccc2)cc1"
105% (inactive)

Here is the next molecule: "CCCCc1nc(Cl)c(CO)n1Cc1ccc(-c2ccccc2-c2nn[nH]n2)cc1"
109% (inactive)

Here is the next molecule: COc1cc(C2C=C(c3ccc(C)cc3)Nc3nc(SC)[nH]c(=O)c32)ccc1Oc1ccnc2cc(Cl)ccc12 (stereo not drawn)
86.3% (inactive)

Moving on to the next molecule: COc1ccc(C2CC(c3ccc(OC)c(OC)c3)=NN2C(=O)c2cc(OC)c(OC)c(OC)c2)cc1 (stereo not drawn)
58.8% (inactive)

* * *

System: A549/ATCC NSCLC
Test name: NCI-60 one-dose screen, 48 h
Measurement context: 10 µM unless noted
Experimental: Growth inhibition of the A549/ATCC human Non-Small Cell Lung tumor cell line is measured as a screen for anti-cancer activity. Cells are grown in 96 well plates and exposed to the test compound for 48 hours. Compounds are tested at a single concentration, which is 10^-5 M for most compounds. The reported endpoint is percent growth (GI% or GIPRCNT), where numbers from 0 - 100% represent growth inhibition, and numbers from -100% - 0 represent cell death. […]
The panel holds about 83,000 compounds, 20% with a hit somewhere; the sample as a whole holds those more often. Active and inactive are the calls of the source. The calls were made as follows: active = growth percent below 10; inactive = the rest.
Select the matching outcome among 1.0 (active), 0.0 (inactive)

Study these solved cases before continuing.
| Compound | Measured target | Label class |
| --- | --- | --- |
| Cc1nc2c(O)cccc2cc1CO | A549/ATCC NSCLC | 0.0 |
| COc1ccc2c(c1)C(=O)c1c-2c(OCCCN(C)C)nc2cc(Br)ccc12 | A549/ATCC NSCLC | 0.0 |
| Oc1ccc(-c2nn(-c3ccccc3)cc2-c2nc3ccccc3s2)cc1 | A549/ATCC NSCLC | 0.0 |
| CCOc1ccccc1C(=O)OCC(=O)Nc1cccc(S(=O)(=O)N(C)C)c1 | A549/ATCC NSCLC | 0.0 |
| CC[C@]1(O)CC2CN(CCc3c([nH]c4ccccc34)[C@@](C(=O)OC)(c3cc4c(cc3OC)N(C)[C@H]3[C@@](O)(C(=O)OC)[C@H](OC(C)=O)[C@]5(CC)C=CCN6CC[C@]43[C@@H]65)C2)C1 (stereo not given in full) | A549/ATCC NSCLC | 0.0 |
| CCCCc1nc(Cl)c(CO)n1Cc1ccc(-c2ccccc2-c2nn[nH]n2)cc1 | A549/ATCC NSCLC | 0.0 |
| CCCCCCCCCCCCNc1ncnc2[nH]ncc12 | A549/ATCC NSCLC | 0.0 |
| Cc1nn(-c2ccc(Cl)cc2)c2nc3c(nc12)c(=O)oc1ccccc13 | A549/ATCC NSCLC | 0.0 |

Per the assay record, what outcome was assigned to "COc1ccc(-c2cn(-c3ccccc3)c(-c3ccccc3)n2)cc1OC" ?
0.0

Ok, now "C[C@]12CC[C@@H]3c4ccc(O)c([N+](=O)[O-])c4CC[C@H]3[C@@H]1CC[C@@H]2NS(=O)(=O)c1ccc(C(F)(F)F)cc1"
0.0

Repeat for the following compound: "CCCc1cccc(CCC)c1O"
0.0

Entry to check: "C=CCOc1ccc2c(c1)CC[C@@H]1[C@@H]2CC[C@@]2(C)[C@H]1CC[C@]2(C)O"
0.0
